Would you mind telling me the reported IC50 of each entry?
tested on: Human breast cancer cell line [MDA-MB-231]; experiment: Anti-proliferative activity (WST-8) of BRD4 targeted PROTAC in MDA-MB-231; format: cell-based; conditions: Homo sapiens; MDA-MB-231, 72 hours, WST-8; read-out: IC50 of BRD4-targeted PROTAC (cell proliferation)

Asked: Need IC50, item Cc1sc2c(c1C)C(c1ccc(Cl)cc1)=N[C@@H](CC(=O)NCCOc1cccc3c(=O)n(C4CCC(=O)NC4=O)ncc13)c1nnc(C)n1-2 (stereo partly shown)
Given back: > 1000 nM

Asked: Endpoint output: IC50 of Cc1sc2c(c1C)C(c1ccc(Cl)cc1)=N[C@@H](CC(=O)NCc1cn(CCOCCOCCNc3cccc4c(=O)n(C5CCC(=O)NC5=O)ncc34)nn1)c1nnc(C)n1-2 (stereo partly shown) . Value?
Given back: > 1000 nM

Asked: Tell me the measured IC50 of Cc1sc2c(c1C)C(c1ccc(Cl)cc1)=N[C@@H](CC(=O)NCCCCCNc1ccc3c(=O)n(C4CCC(=O)NC4=O)ncc3c1)c1nnc(C)n1-2 (stereo partly shown) , please.
Given back: < 1 nM

Asked: Fill in: IC50 of Cc1sc2c(c1C)C(c1ccc(Cl)cc1)=N[C@@H](CC(=O)NCc1cn(CCOCCOCCNc3cccc4cnn(C5CCC(=O)NC5=O)c(=O)c34)nn1)c1nnc(C)n1-2 (stereo partly shown) is ___
Given back: > 1000 nM

Asked: Entry Cc1sc2c(c1C)C(c1ccc(Cl)cc1)=N[C@@H](CC(=O)NCCNc1cccc3c(=O)n(C4CCC(=O)NC4=O)ncc13)c1nnc(C)n1-2 (stereo partly shown) has what IC50?
Given back: > 1000 nM

Asked: GET /values?readout=IC50&item= Cc1sc2c(c1C)C(c1ccc(Cl)cc1)=N[C@@H](CC(=O)NCCOc1cccc3cnn(C4CCC(=O)NC4=O)c(=O)c13)c1nnc(C)n1-2 (stereo partly shown)
Given back: > 1000 nM

Asked: What value of measured IC50 is listed for Cc1sc2c(c1C)C(c1ccc(Cl)cc1)=N[C@@H](CC(=O)NCCCN1CCN(CCCNc3cccc4cnn(C5CCC(=O)NC5=O)c(=O)c34)CC1)c1nnc(C)n1-2 (stereo partly shown) ?
Given back: 568 nM
